# Experimental Target: Histone acetyltransferase p300 (Homo sapiens, UniProt Q09472)
# Sequence (Q09472 whole entry, the tested form may be a part): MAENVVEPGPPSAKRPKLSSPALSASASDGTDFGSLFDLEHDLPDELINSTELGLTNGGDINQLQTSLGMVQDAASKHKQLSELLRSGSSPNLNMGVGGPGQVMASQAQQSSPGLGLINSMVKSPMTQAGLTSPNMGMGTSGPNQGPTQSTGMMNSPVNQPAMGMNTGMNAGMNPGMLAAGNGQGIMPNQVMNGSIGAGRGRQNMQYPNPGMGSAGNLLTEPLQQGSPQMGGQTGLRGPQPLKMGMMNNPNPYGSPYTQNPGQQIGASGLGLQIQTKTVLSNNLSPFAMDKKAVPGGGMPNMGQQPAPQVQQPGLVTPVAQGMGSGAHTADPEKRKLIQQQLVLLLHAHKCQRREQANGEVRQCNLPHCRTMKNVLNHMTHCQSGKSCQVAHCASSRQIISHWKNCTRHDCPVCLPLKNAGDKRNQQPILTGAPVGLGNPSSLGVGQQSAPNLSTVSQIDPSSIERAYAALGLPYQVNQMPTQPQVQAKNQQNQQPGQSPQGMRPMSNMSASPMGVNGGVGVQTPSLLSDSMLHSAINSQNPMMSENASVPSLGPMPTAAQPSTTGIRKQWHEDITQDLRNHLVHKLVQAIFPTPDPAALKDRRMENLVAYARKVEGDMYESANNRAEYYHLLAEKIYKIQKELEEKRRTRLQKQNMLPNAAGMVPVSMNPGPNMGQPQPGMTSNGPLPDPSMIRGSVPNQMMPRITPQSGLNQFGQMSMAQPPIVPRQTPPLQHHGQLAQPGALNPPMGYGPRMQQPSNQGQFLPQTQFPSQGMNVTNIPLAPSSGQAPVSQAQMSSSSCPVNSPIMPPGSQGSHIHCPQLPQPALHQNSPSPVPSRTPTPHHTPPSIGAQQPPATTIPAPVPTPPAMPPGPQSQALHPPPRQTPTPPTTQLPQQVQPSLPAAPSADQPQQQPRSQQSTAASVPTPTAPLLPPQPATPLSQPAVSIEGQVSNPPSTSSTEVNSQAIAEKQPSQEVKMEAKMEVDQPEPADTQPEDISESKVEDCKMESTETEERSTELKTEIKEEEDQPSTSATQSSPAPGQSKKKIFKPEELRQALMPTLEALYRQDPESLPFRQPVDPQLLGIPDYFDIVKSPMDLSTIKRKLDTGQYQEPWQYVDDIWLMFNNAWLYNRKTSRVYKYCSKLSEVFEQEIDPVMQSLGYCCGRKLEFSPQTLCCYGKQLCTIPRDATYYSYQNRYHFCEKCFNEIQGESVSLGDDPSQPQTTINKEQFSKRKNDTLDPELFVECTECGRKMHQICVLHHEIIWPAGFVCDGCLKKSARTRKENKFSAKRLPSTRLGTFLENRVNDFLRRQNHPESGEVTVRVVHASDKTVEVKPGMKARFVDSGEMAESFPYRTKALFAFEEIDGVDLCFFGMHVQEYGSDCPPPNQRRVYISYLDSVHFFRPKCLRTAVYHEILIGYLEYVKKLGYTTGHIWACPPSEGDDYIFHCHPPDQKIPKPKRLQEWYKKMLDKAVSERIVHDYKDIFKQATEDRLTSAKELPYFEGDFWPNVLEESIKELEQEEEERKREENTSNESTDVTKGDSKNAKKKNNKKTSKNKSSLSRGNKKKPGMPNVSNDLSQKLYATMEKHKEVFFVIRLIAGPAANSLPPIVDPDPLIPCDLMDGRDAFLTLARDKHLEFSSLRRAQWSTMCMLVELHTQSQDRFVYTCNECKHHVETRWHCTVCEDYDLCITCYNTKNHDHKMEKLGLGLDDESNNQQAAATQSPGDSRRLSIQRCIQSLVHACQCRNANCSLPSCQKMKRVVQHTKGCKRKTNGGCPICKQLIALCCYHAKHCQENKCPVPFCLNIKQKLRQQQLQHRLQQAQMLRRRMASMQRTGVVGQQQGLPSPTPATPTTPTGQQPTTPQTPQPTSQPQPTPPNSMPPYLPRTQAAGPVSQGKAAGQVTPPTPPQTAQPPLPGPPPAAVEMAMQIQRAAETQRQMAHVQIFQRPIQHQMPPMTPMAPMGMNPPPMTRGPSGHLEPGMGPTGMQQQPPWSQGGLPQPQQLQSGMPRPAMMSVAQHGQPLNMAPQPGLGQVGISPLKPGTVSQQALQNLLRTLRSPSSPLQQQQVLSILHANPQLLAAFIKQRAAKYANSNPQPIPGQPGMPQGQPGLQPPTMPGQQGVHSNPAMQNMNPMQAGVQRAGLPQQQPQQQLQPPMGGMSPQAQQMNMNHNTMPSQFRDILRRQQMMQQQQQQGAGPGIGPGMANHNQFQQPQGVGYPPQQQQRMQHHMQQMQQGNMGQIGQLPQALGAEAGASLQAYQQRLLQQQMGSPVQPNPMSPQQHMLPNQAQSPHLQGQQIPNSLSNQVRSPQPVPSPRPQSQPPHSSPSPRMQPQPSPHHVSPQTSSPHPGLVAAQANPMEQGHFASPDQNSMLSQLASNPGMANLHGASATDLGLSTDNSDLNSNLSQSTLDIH
# Test: Inhibition of recombinant p300 HAT domain using Histone H4(1-20) substrate assessed as inhibition of histone acetyltransferase activity after 10 mins by liquid scintillation counting
Experimental Endpoint: pIC50
Answer as the number alone; pIC50 is minus log10 of concentration in mol/L.

Briefly, pIC50 measured for "O=C(c1ccc(O)c(NC(=O)c2cccc3ccccc23)c1)c1ccc(O)c(NC(=O)c2cccc3ccccc23)c1" : 4.82

###

Experimental Endpoint: Kd (µM)
All answers are understood in µM, so give the number only.

Entry "O=C(c1ccc(O)c(NC(=O)c2cccc3ccccc23)c1)c1ccc(O)c(NC(=O)c2cccc3ccccc23)c1" under Histone H4 (Homo sapiens, UniProt P62805) had Kd of 23.8
